Where do these numbers come from? They come from patent US8933195B2.

- system_tested: HDAC1 (Homo sapiens, UniProt Q13547)
- Sequence (Q13547 whole entry, species assumed): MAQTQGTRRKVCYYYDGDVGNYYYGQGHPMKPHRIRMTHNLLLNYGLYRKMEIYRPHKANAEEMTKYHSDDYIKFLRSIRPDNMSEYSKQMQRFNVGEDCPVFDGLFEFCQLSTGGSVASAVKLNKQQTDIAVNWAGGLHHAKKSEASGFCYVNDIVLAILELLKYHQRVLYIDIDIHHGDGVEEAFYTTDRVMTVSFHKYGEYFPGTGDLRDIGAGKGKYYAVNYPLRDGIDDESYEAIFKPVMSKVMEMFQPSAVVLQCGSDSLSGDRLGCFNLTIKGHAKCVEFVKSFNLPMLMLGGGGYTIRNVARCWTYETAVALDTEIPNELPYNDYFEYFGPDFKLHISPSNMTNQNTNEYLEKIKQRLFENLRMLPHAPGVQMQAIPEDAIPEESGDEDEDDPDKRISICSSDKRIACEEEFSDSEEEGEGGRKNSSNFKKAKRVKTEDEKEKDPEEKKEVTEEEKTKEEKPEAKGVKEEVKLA
- test_details: Measurement of biochemical activities of HDAC (fluorescently-labeled acetylated lysine substrate)
- cond: read-out: IC50 HDAC1
observed_property: IC50

INSERT INTO assay_data (compound_structure, system_tested, result) VALUES
  ('C=C1NC(=O)c2csc(n2)CNC(=O)C[C@@H](/C=C/CCSC(=O)CCCCCCC)OC(=O)[C@H](C(C)C)NC1=O', 'HDAC1 (Homo sapiens, UniProt Q13547)', '< 10 µM'),
  ('C/C=C1\NC(=O)c2cccc(c2)CNC(=O)C[C@@H](/C=C/CCSC(=O)CCCCCCC)OC(=O)[C@H](C(C)C)NC1=O', 'HDAC1 (Homo sapiens, UniProt Q13547)', '< 10 µM'),
  ('C/C=C1\NC(=O)c2csc(n2)CNC(=O)C[C@@H](/C=C/CCSC(=O)CCCCCCC)OC(=O)[C@@H](C)NC1=O', 'HDAC1 (Homo sapiens, UniProt Q13547)', '< 10 µM'),
  ('C/C=C1\NC(=O)c2ccnc(c2)CNC(=O)C[C@@H](/C=C/CCSC(=O)CCCCCCC)OC(=O)[C@H](C(C)C)NC1=O', 'HDAC1 (Homo sapiens, UniProt Q13547)', '< 10 µM'),
  ('C/C=C1\NC(=O)c2csc(n2)CNC(=O)C[C@@H](/C=C/CCS)OC(=O)[C@H](C(C)C)NC1=O', 'HDAC1 (Homo sapiens, UniProt Q13547)', '< 0.1 µM');
